Please go through the items and note down their IC50.
biological target: GMPPNP-loaded H-Ras or GTP-loaded K-Ras; assay: FP competition, displacement of probe R4007 from Ras
*1 amine or outer side, *2 acyl side, *3 side chain or, on linkers, in order; H or OH if unused. Bridges are numbered along the chain shown (N, C = ends). Where no end group is shown, it is not given here. [ ]: non-standard residue; d: D form. The star is where a group is joined. ξ: configuration not given here. DAPTZAC2 = (S)-3-(4-(2-acrylamidoethyl)-1H-1,2,3-triazol-1-yl)-2-aminopropanoic acid, C=CC(=O)NCCc1cn(C[C@H](N[*:1])C(=O)[*:2])nn1; TDSPA = (R)-2-amino-3-(tert-butyldisulfanyl)propanoic acid, CC(C)(C)SSC[C@H](N[*:1])C(=O)[*:2]; Trp(7-aza) = N[C@@H](Cc1c[nH]c2ncccc12)C(=O)O; NMePhe(4-F) = CN[C@@H](Cc1ccc(F)cc1)C(=O)O; mXylylene = c1cc(C[*:1])cc(C[*:2])c1; Phg = N[C@H](C(=O)O)c1ccccc1; Tle = CC(C)(C)[C@H](N)C(=O)O; ξPhg = NC(C(=O)O)c1ccccc1; NMeA = CN[C@@H](C)C(=O)O; Orn = NCCC[C@H](N)C(=O)O; Pra = C#CC[C@H](N)C(=O)O; Dab = NCC[C@H](N)C(=O)O; Nva = CCC[C@H](N)C(=O)O; Dap = NC[C@H](N)C(=O)O; Acryloyl = C=CC(=O)*; Ava = NCCCCC(=O)O; Sar = CNCC(=O)O
Give bare numbers, in nM.

# example entries with known answers
{"Binder": "Ac-[Nva]CY[Tle]KH[NMeA][Phg][Trp(7-aza)]Y[NMePhe(4-F)][Sar]C[dS][dA]K[TDSPA]VIM (linker 2-13 via mXylylene) [R4111]", "IC50 / nM": 20.8}
{"Binder": "Ac-[Nva]CY[Tle]A[Orn](Acryloyl)[NMeA][Phg][Trp(7-aza)]Y[NMePhe(4-F)][Sar]C-NH2 (linker 2-13 via mXylylene; SMILES C=CC(=O)NCCC[C@@H]1NC(=O)[C@H](C)NC(=O)[C@H](C(C)(C)C)NC(=O)[C@H](Cc2ccc(O)cc2)NC(=O)[C@@H](NC(=O)[C@H](CCC)NC(C)=O)CSCc2cccc(c2)CSC[C@@H](C(N)=O)NC(=O)CN(C)C(=O)[C@H](Cc2ccc(F)cc2)N(C)C(=O)[C@H](Cc2ccc(O)cc2)NC(=O)[C@H](Cc2c[nH]c3ncccc23)NC(=O)[C@H](c2ccccc2)NC(=O)[C@H](C)N(C)C1=O) [R4122]", "IC50 / nM": 77.1}
{"Binder": "Ac-[Nva]SY[Tle]A[DAPTZAC2][NMeA][ξPhg][Trp(7-aza)]Y[NMePhe(4-F)][Sar]S-NH2 (also: places Phg, 7-azaTrp, NMe-4-F-Phe, Sar at 9, 10, 12, 13) [R4151]", "IC50 / nM": 12200}

Kindly give each listed record's IC50.
1. Ac-[Nva]CY[Tle]KH[NMeA][Phg]WY[NMePhe(4-F)][Sar]C-NH2 (linker 2-13 via mXylylene; SMILES CCC[C@H](NC(C)=O)C(=O)N[C@H]1CSCc2cccc(c2)CSC[C@@H](C(N)=O)NC(=O)CN(C)C(=O)[C@H](Cc2ccc(F)cc2)N(C)C(=O)[C@H](Cc2ccc(O)cc2)NC(=O)[C@H](Cc2c[nH]c3ccccc23)NC(=O)[C@H](c2ccccc2)NC(=O)[C@H](C)N(C)C(=O)[C@H](Cc2c[nH]cn2)NC(=O)[C@H](CCCCN)NC(=O)[C@H](C(C)(C)C)NC(=O)[C@H](Cc2ccc(O)cc2)NC1=O) [R4115]
2. Ac-[Nva]CY[Tle]A[Dab][NMeA][Phg][Trp(7-aza)]Y[NMePhe(4-F)][Sar]C-NH2 (linker 2-13 via mXylylene; SMILES CCC[C@H](NC(C)=O)C(=O)N[C@H]1CSCc2cccc(c2)CSC[C@@H](C(N)=O)NC(=O)CN(C)C(=O)[C@H](Cc2ccc(F)cc2)N(C)C(=O)[C@H](Cc2ccc(O)cc2)NC(=O)[C@H](Cc2c[nH]c3ncccc23)NC(=O)[C@H](c2ccccc2)NC(=O)[C@H](C)N(C)C(=O)[C@H](CCN)NC(=O)[C@H](C)NC(=O)[C@H](C(C)(C)C)NC(=O)[C@H](Cc2ccc(O)cc2)NC1=O) [R4140]
3. Ac-[Nva]CY[Tle]KH[NMeA][Phg][Trp(7-aza)]Y[NMePhe(4-F)][Sar]C[dS][dA]GCVIM (linker 2-13 via mXylylene) [R4102]
4. Ac-[Nva]CY[Tle]A[Dap](Acryloyl)[NMeA][Phg][Trp(7-aza)]Y[NMePhe(4-F)][Sar]C-NH2 (linker 2-13 via mXylylene; SMILES C=CC(=O)NC[C@@H]1NC(=O)[C@H](C)NC(=O)[C@H](C(C)(C)C)NC(=O)[C@H](Cc2ccc(O)cc2)NC(=O)[C@@H](NC(=O)[C@H](CCC)NC(C)=O)CSCc2cccc(c2)CSC[C@@H](C(N)=O)NC(=O)CN(C)C(=O)[C@H](Cc2ccc(F)cc2)N(C)C(=O)[C@H](Cc2ccc(O)cc2)NC(=O)[C@H](Cc2c[nH]c3ncccc23)NC(=O)[C@H](c2ccccc2)NC(=O)[C@H](C)N(C)C1=O) [R4136]
5. cyclo([Ava]Y[Tle]KH[NMeA][Phg][Trp(7-aza)]Y[NMePhe(4-F)][Sar][Pra]) (SMILES C#CC[C@@H]1NC(=O)CN(C)C(=O)[C@H](Cc2ccc(F)cc2)N(C)C(=O)[C@H](Cc2ccc(O)cc2)NC(=O)[C@H](Cc2c[nH]c3ncccc23)NC(=O)[C@H](c2ccccc2)NC(=O)[C@H](C)N(C)C(=O)[C@H](Cc2c[nH]cn2)NC(=O)[C@H](CCCCN)NC(=O)[C@H](C(C)(C)C)NC(=O)[C@H](Cc2ccc(O)cc2)NC(=O)CCCCNC1=O) [R4128]
6. Ac-[Nva]CY[Tle]KH[NMeA][Phg][Trp(7-aza)]Y[NMePhe(4-F)][Sar]CGCGVGIM (linker 2-13 via mXylylene) [R4119]

Ans.
[34.1, 608, 1.82, 392, 215, 64.4]
